Test system: SK-MEL-103
MEASUREMENT DESCRIPTION: Cytotoxicity against human SK-MEL-103 cells assessed as inhibition of cell proliferation at 25 uM incubated for 72 hrs by MTT assay relative to control
Type: functional
Design: scale not given: the % may be the effect or the level left
Output rule met for Activity not less than 40%; output rule not met otherwise.

Consider the following illustrative entries.
CHEM SMILES: C#CCN(c1nc(-c2ccc([N+](=O)[O-])cc2)no1)C1CCCCC1
CLASS LABEL: rule not met
//
CHEM SMILES: O=[N+]([O-])c1ccc(-c2noc(NC3CCCCC3)n2)cc1
CLASS LABEL: rule met

Prompt: Does the reported Activity for C#CCN(c1nc(-c2ccc(F)cc2)no1)C1CCCCC1 fall at or above the 40% mark?
Completion: rule met

Prompt: Does C#CCN(c1nc(-c2ccc(OC)cc2)no1)C1CCCCC1 have a reported Activity of at least 40%?
Completion: rule not met

Prompt: Please check the record CC(=O)OC[C@H]1O[C@H](OC[C@@H](Cn2cc(CN(c3nc(-c4ccc([N+](=O)[O-])cc4)no3)C3CCCCC3)nn2)OC(C)=O)C=C[C@@H]1OC(C)=O and state if its Activity is at or above 40%.
Completion: rule not met

Prompt: Given CC(=O)OC[C@H]1O[C@H](OC[C@@H](Cn2cc(CN(c3nc(-c4cccc([N+](=O)[O-])c4)no3)C3CCCCC3)nn2)OC(C)=O)C=C[C@@H]1OC(C)=O , state whether its Activity is at least 40%.
Completion: rule met

###

MEASUREMENT DESCRIPTION: Selectivity index, ratio of CC50 for human HepG2 cells to MIC for antimycobacterial activity against Mycobacterium tuberculosis H37Rv ATCC 27294
Format: toxicity
CONDITION SUMMARY: read-out: Selectivity Index
OBSERVABLE: selectivity ratio
API note: the answer field is a bare number with no unit suffix.

Sample records with selectivity ratio:
CHEM SMILES: C#CCN(c1nc(-c2ccc(C(F)(F)F)cc2)no1)C1CCCCC1
selectivity ratio: 1.93

CHEM SMILES: CC(=O)OC[C@H]1O[C@H](OC[C@@H](Cn2cc(CN(c3nc(-c4ccc(Cl)cc4)no3)C3CCCCC3)nn2)OC(C)=O)C=C[C@@H]1OC(C)=O
selectivity ratio: 0.73

CHEM SMILES: C#Cc1ccc(-c2noc(NC3CCCCC3)n2)cc1
selectivity ratio: 1.69

We now examine a further compound.
Prompt: State the recorded selectivity ratio for this entry: C#CCN(c1nc(-c2cccc(Br)c2)no1)C1CCCCC1
Completion: 1.67

###

MEASUREMENT DESCRIPTION: Selectivity index, ratio of CC50 for mouse RAW264.7 cells to MIC for antimycobacterial activity against Mycobacterium tuberculosis H37Rv ATCC 27294
Type: toxicity
CONDITION SUMMARY: read-out: Selectivity Index
# if value of selectivity ratio reaches 0.9, tag class 1; if it stays below, tag class 0

CHEM SMILES: C#CCN(c1nc(-c2ccc(Cl)cc2)no1)C1CCCCC1
CLASS LABEL: class 1
--
CHEM SMILES: C#CCN(c1nc(-c2ccc(F)cc2)no1)C1CCCCC1
CLASS LABEL: class 0
--
CHEM SMILES: C#Cc1ccc(-c2noc(NC3CCCCC3)n2)cc1
CLASS LABEL: class 0
--
CHEM SMILES: CC(=O)OC[C@H]1O[C@H](OC[C@@H](Cn2cc(CN(c3nc(-c4ccc([N+](=O)[O-])cc4)no3)C3CCCCC3)nn2)OC(C)=O)C=C[C@@H]1OC(C)=O
CLASS LABEL: class 1
--
CHEM SMILES: C#CCN(c1nc(-c2ccc(Br)cc2)no1)C1CCCCC1
CLASS LABEL: class 0

Prompt: Determine whether this molecule has selectivity ratio no lower than 0.9: CC(=O)OC[C@H]1O[C@H](OC[C@H](Cn2cc(COc3ccc(-c4noc(NC5CCCCC5)n4)cc3)nn2)OC(C)=O)C=C[C@@H]1OC(C)=O
Completion: class 1

Prompt: selectivity ratio >= 0.9 for CC(=O)OC[C@H]1O[C@H](OC[C@@H](Cn2cc(CN(c3nc(-c4ccc(Br)cc4)no3)C3CCCCC3)nn2)OC(C)=O)C=C[C@@H]1OC(C)=O ?
Completion: class 1

Prompt: Reported selectivity ratio reaches at least 0.9 for CC(=O)OC[C@H]1O[C@H](OC[C@@H](Cn2cc(CN(c3nc(-c4ccc(F)cc4)no3)C3CCCCC3)nn2)OC(C)=O)C=C[C@@H]1OC(C)=O ?
Completion: class 0
